METRIC_NAME: intrinsic clearance, rat liver microsomes (mL/min/kg)

[
  {
    "MOLECULE": "COc1ccc(C(=O)N(C)Cc2nccn2C)c(F)c1",
    "READING": 53.8
  },
  {
    "MOLECULE": "CC(C)c1cc(C(=O)N2Cc3ccc(CN4CCN(C)CC4)cc3C2)c(O)cc1O",
    "READING": 50.4
  },
  {
    "MOLECULE": "N#CCN(C(=O)c1cn(-c2ccc(Br)cc2)cn1)C1CC1",
    "READING": 57.3
  }
]

a = N#CCCCN1CCN(c2cc(C#N)ccn2)CC1
b = CN1[C@@H]2CC[C@H]1C[C@H](OC(c1ccccc1)c1ccccc1)C2
c = CN(Cc1ccc(N)nc1)c1nc2cc(F)ccc2o1
d = Cc1cccc(OCCn2c(N)nc3ccccc32)c1
e = CC(C)c1cc(N2CCc3[nH]nc(C4CC4)c3C2)n2nccc2n1
Thanks in advance: please rank these 5 entries by intrinsic clearance, rat liver microsomes, highest to lowest. // rank by listing labels in the order requested
d, b, e, a, c
(d: 2200 mL/min/kg, b: 1090 mL/min/kg, e: 381 mL/min/kg, a: 180 mL/min/kg, c: 58.1 mL/min/kg)

I = Oc1ccc2nc(/C=C/c3csnn3)ccc2c1Cl
II = CCCNC(=O)CSc1nc2cc(C)ccc2[nH]1
III = Cc1cccc(C(=O)N(C)CCc2cnccn2)c1
Arrange items by their intrinsic clearance, rat liver microsomes values in increasing order. Sort the labels as requested; that list is your answer.
III, I, II

a = CCCOc1ccccc1C(=O)N1CC(Oc2cccc(OC)c2)C1
b = N#Cc1ccccc1N1CCC(N)CC1
c = CCCCC1=NC2(CCCC2)C(=O)N1Cc1ccc(-c2ccccc2-c2nn[nH]n2)cc1
d = Cn1cc(C(=O)NCCc2c[nH]c3ccccc23)c(-c2cccnc2)n1
e = Cc1nc(CC2CCN(S(=O)(=O)c3cn(C)cn3)CC2)cc(NC2CCCC2)n1
Hello, I need these entries ordered by intrinsic clearance, rat liver microsomes, highest reading first. Thanks! Reply: labels, ordered per the request.
b, a, d, c, e
(b: 2210 mL/min/kg, a: 1360 mL/min/kg, d: 415 mL/min/kg, c: 151 mL/min/kg, e: 90.9 mL/min/kg)

Entry source: the Biogen ADME set (Fang et al. 2023)
